# Test system: Fibroblast
# procedure_summary: Multiplex assay against human fibroblast
# Format: toxicity, cell-based
# measurement_context: 48 h, 10 µM, compound concentration 10 uM, replicate 2
// NB: equality with 40% counts as rule not met; only Population Fragmented Nuclei (%) strictly below is rule met

| compound | test_system | category |
| --- | --- | --- |
| CCOC(=O)c1c(C)[nH]c2ccc3c(c12)CN1CCc2cc(OC)ccc2C1O3 (centres undefined) | Fibroblast | rule not met |
| O=C(Cc1ccc(-c2ccc(OCCN3CCOCC3)cc2)cn1)NCc1ccccc1 [TIRBANIBULIN] | Fibroblast | rule not met |
| Cl.O=C(c1ccc(Nc2nccc(-c3cc4ccccc4s3)n2)cc1)N1CCC(N2CCCC2)CC1 | Fibroblast | rule not met |
| Cl.Oc1ccc2c3c1O[C@H]1c4[nH]c5c(c4C[C@@]4(O)[C@@H](C2)N(CC2CC2)CC[C@]314)C[C@@]1(O)[C@H]2Cc3ccc(O)c4c3[C@@]1(CCN2CC1CC1)[C@H]5O4 | Fibroblast | rule met |
| CN1CCN(C(=O)C(C)(C)c2ccc(C(=O)Nc3cn4cc(-c5ccncc5)ccc4n3)cc2)CC1 [T3-CLK] | Fibroblast | rule met |
| CCOc1cc(C(=O)N2CCC(N3CCN(C)CC3)CC2)ccc1Nc1ncc2c(n1)N(C1CCCC1)c1ccccc1C(=O)N2C | Fibroblast | rule met |
| COCC(=O)NC/C=C/c1ccc2ncnc(Nc3ccc(Oc4ccc(C)nc4)c(C)c3)c2c1 [CP-724714] | Fibroblast | rule met |
| S=C(NCCCc1c[nH]cn1)NCCCN(Cc1ccc(Cl)c(Cl)c1)c1ccc(Br)cn1 | Fibroblast | rule met |
| CN(C)C(=O)C(CCN1CCC(O)(c2ccc(Cl)cc2)CC1)(c1ccccc1)c1ccccc1.Cl [LOPERAMIDE HYDROCHLORIDE] | Fibroblast | rule met |
| O=C(Nc1ccc(Cl)cc1)Nc1cccc(-c2cccc(N3CCCC3)n2)c1 | Fibroblast | rule met |

query: Criterion: Population Fragmented Nuclei (%) strictly below 40%. Is it met by Cc1ccc(C(=O)Nc2cccc(C(F)(F)F)c2)cc1Nc1nc(-c2cccnc2)nc2c1cnn2C ?
result: rule not met

query: Criterion: Population Fragmented Nuclei (%) strictly below 40%. Is it met by O=C(Nc1ccc(-n2nc(-c3cccnc3)cc2C(F)(F)F)cn1)c1ccc(-c2ccccc2)c(F)c1 [BI 2049] ?
result: rule met

query: Criterion: Population Fragmented Nuclei (%) strictly below 40%. Is it met by CCc1cccc(CC)c1NC(=O)c1nn(C)c2c1CCc1cnc(Nc3ccc(C(=O)NC4CCN(C)CC4)cc3OC(F)(F)F)nc1-2 ?
result: rule met

* * *

Each item that follows carries a reported Population Mitochondria Different-Phenotype (%).
# System: U2OS
# procedure_summary: Multiplex assay against U2OS
# Assay type: toxicity, cell-based
# measurement_context: human, 12 h, 10 µM, compound concentration 10 uM, replicate 2
Unit % implied. Number only.

Solved cases (5 shown):
| compound | recorded_number |
| --- | --- |
| COCC(=O)NC/C=C/c1ccc2ncnc(Nc3ccc(Oc4ccc(C)nc4)c(C)c3)c2c1 | 94 |
| NC(=O)c1cccc(-c2cc(Nc3ccc(OC(F)(F)F)cc3)ncn2)c1 | 24 |
| CN1C2CCC1CC(OC(c1ccc(F)cc1)c1ccc(F)cc1)C2.Cl (stereo unspecified) | 89 |
| CCCS(=O)(=O)c1nc(NC2CC2)cc(-c2ccc3c(ccn3C3CC(C)(C)NC(C)(C)C3)c2)n1 | 38 |
| CNc1cc(Oc2cc(C(=O)Nc3cc(N4CCN(C)CC4)cc(C(F)(F)F)c3)ccc2C)ncn1 | 66 |

query: Report Population Mitochondria Different-Phenotype (%) for C=CCn1c(=O)c2cnc(Nc3ccc(N4CCN(C)CC4)cc3)nc2n1-c1cccc(C(C)(C)O)n1
result: 62

query: Report Population Mitochondria Different-Phenotype (%) for CCCn1c(=O)c2[nH]c(-c3cnn(Cc4cccc(C(F)(F)F)c4)c3)nc2n(CC)c1=O
result: 20

query: Report Population Mitochondria Different-Phenotype (%) for CN1CCN(C(=O)C(C)(C)c2ccc(C(=O)Nc3cn4cc(-c5cc(C(C)(C)C)cc(C(C)(C)C)c5)ccc4n3)cc2)CC1
result: 38

query: Report Population Mitochondria Different-Phenotype (%) for Cc1ccc(C(=O)Nc2cccc(C(F)(F)F)c2)cc1Nc1nc(-c2cccnc2)nc2c1cnn2C
result: 92

query: Report Population Mitochondria Different-Phenotype (%) for Cc1ccc2nc(NCCN)c3ncc(C)n3c2c1.O=C(O)C(F)(F)F.O=C(O)C(F)(F)F
result: 13

query: Report Population Mitochondria Different-Phenotype (%) for CCn1cc(-c2ccnc3[nH]c(-c4cccc(CN(C)C)c4)cc23)c(-c2ccc(NC(=O)N(C)C)cc2)n1
result: 67

query: Report Population Mitochondria Different-Phenotype (%) for COc1cccc2cc(-c3nc([C@H]4CC[C@H](C(=O)O)CC4)n4ncnc(N)c34)[nH]c12
result: 26

query: Report Population Mitochondria Different-Phenotype (%) for O=C(Nc1ccc(Cl)cc1)Nc1cccc(-c2cccc(N3CCCC3)n2)c1
result: 7

query: Report Population Mitochondria Different-Phenotype (%) for CCCS(=O)(=O)Nc1ccc(F)c(C(=O)c2c[nH]c3ncc(Cl)cc23)c1F
result: 31

* * *

# Tested on: Fibroblast
# procedure_summary: Incucyte cell viability with human fibroblast; further: filed as whole numbers so only -1 and 0 and 1 occur
# Type: toxicity, cell-based
# measurement_context: 12 h, 10 µM, compound concentration 10 uM, replicate number 1, timepoint 12 hours
metric: Growth Rate
Note: the reply should be a number with no unit written.

| compound | metric | recorded_number |
| --- | --- | --- |
| Cc1cn(-c2cc(NC(=O)c3ccc(C)c(Nc4nccc(-c5cccnc5)n4)c3)cc(C(F)(F)F)c2)cn1 | Growth Rate | 0 |

query: Report Growth Rate for O=C(Nc1ccc(-n2nc(-c3cccnc3)cc2C(F)(F)F)cn1)c1ccc(-c2ccccc2)c(F)c1
result: 0

query: Report Growth Rate for CN([C@@H](Cc1ccc(OS(=O)(=O)c2cccc3cnccc23)cc1)C(=O)N1CCN(c2ccccc2)CC1)S(=O)(=O)c1cccc2cnccc12
result: 1

query: Report Growth Rate for CCOc1cc2ncc(C#N)c(Nc3ccc(OCc4ccccn4)c(Cl)c3)c2cc1NC(=O)/C=C/CN(C)C
result: 1

query: Report Growth Rate for CNC[C@H](O)c1cccc(O)c1
result: 1

query: Report Growth Rate for CCn1cc(-c2ccnc3[nH]c(-c4cccc(CN(C)C)c4)cc23)c(-c2ccc(NC(=O)N(C)C)cc2)n1
result: 0

* * *

Each item that follows carries a reported Total Cell Count.
# Test system: U2OS
# procedure_summary: Multiplex assay against U2OS
# Type: toxicity, cell-based
# measurement_context: human, 12 h, 1 µM, compound concentration 1 uM, replicate 2

Solved cases (4 shown):
| compound | Total Cell Count |
| --- | --- |
| CCCn1c(=O)c2[nH]c(-c3cnn(Cc4cccc(C(F)(F)F)c4)c3)nc2n(CC)c1=O | 75 |
| COc1cc(N2CCN(C)CC2)ccc1Nc1ncc2c(n1)N(C)c1ccccc1C(=O)N2C | 104 |
| O=C(Nc1ccc(Cl)cc1)Nc1cccc(-c2cccc(N3CCCC3)n2)c1 | 83 |
| NC(=O)c1cccc(-c2cc(Nc3ccc(OC(F)(F)F)cc3)ncn2)c1 | 738 |

query: Report Total Cell Count for COC(=N)c1nc2ccc3ncnc(Nc4ccc(OC)cc4F)c3c2s1
result: 110

query: Report Total Cell Count for COc1cc2ncnc(Nc3ccc(F)c(Cl)c3)c2cc1NC(=O)/C=C/CN1CCCCC1 [DACOMITINIB ANHYDROUS]
result: 127

query: Report Total Cell Count for C=CCn1c(=O)c2cnc(Nc3ccc(N4CCN(C)CC4)cc3)nc2n1-c1cccc(C(C)(C)O)n1
result: 165

query: Report Total Cell Count for O=C(Nc1ccc(-c2ccnc(Nc3ccc(N4CCOCC4)cc3)n2)cc1)[C@@H]1CCCN1
result: 65

query: Report Total Cell Count for Cc1ccc(C(=O)Nc2cccc(C(F)(F)F)c2)cc1Nc1nc(-c2cccnc2)nc2c1cnn2C
result: 101

query: Report Total Cell Count for Cn1nc(C(F)(F)F)cc1-c1cnc(N2CCc3cc(S(=O)(=O)Nc4c(F)cc(Cl)cc4F)cc(N4CCCC4=O)c32)nc1
result: 134

* * *

Each item that follows carries a reported Total Cell Count.
# Tested on: HEK-293T
# procedure_summary: Multiplex assay against HEK293T
# Type: toxicity, cell-based
# measurement_context: human, 12 h, 1 µM, compound concentration 1 uM, replicate 2
Note: the reply should be a number with no unit written.

Solved cases (3 shown):
| line_notation | test_system | Total Cell Count |
| --- | --- | --- |
| CNC(=O)c1ccc(Nc2nc(OC3CCCC3)c3c(-c4ccc5nc(C)oc5c4)c[nH]c3n2)c(OC)c1 | HEK-293T | 712 |
| Cl.O=c1c2cccn2c2ccccc2n1CCCN1CCC(c2ccc(Cl)cc2)CC1 | HEK-293T | 238 |
| Cn1nc(C(F)(F)F)cc1-c1cnc(N2CCc3cc(S(=O)(=O)Nc4c(F)cc(Cl)cc4F)cc(N4CCCC4=O)c32)nc1 | HEK-293T | 1398 |

Moving on to the next molecule.
query: Report Total Cell Count for CCN1CCN(Cc2ccc(Nc3ncc(F)c(-c4cc(F)c5nc(C)n(C(C)C)c5c4)n3)nc2)CC1.CS(=O)(=O)O
result: 181

Entry source: ChEMBL document CHEMBL4689842
